B1: 2M8U (parent)
chain: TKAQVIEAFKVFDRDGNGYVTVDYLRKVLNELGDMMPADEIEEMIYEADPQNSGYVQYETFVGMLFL

Variants of: B1
experiment notes: folding stability dG (cDNA display proteolysis); higher = more stable
test conditions: PBS, room temperature
endpoint: folding stability dG (kcal/mol)
Express it in kcal/mol; write the number only.

* I6T | 2.72
* V11P | 3.14
* K27S | 3.2
* N30M | 3.63
* R26P | 1.55
* E31P | 2.78

Asked: Quick one: folding stability dG for Q57M ?
Given back: 3.27

Asked: Dear colleague, I am looking for the recorded folding stability dG of the following variant: E47F
Given back: 3.75

Asked: Fill in: folding stability dG of N52G is ___
Given back: 3.51

Asked: Reported folding stability dG for K27E : what is it?
Given back: 3.28

Asked: Requested field: folding stability dG. Item: D13N
Given back: 1.76
